# assay_method_text: Selectivity index, ratio of CC50 for African green monkey Vero A cells to IC50 for CHIKV infected in African green monkey Vero A cells
# Type: toxicity
# condition_context: read-out: Ratio CC50/IC50
measure: selectivity ratio

Example cases with answers are listed next.
molecule: CCOP(=O)(OCC)C(Nc1ccc(C)cc1)c1cc(Cn2cc(Cn3c(=O)cc(C)c4cc(Br)ccc43)nn2)ccc1O (stereo unspecified)
selectivity ratio: > 1.78

molecule: Cc1cc(=O)n(Cc2cn(Cc3ccc(O)c(C=O)c3)nn2)c2ccc(Br)cc12
selectivity ratio: > 1.02

## Input # get_value(readout='selectivity ratio', item= CCOP(=O)(OCC)C(Nc1ccccc1OC)c1cc(Cn2cc(Cn3c(=O)cc(C)c4cc(Br)ccc43)nn2)ccc1O (stereo unspecified) )
## Output > 1.23

## Input Then CCOP(=O)(OCC)C(Nc1ccc(F)cc1)c1cc(Cn2cc(Cn3c(=O)cc(C)c4cc(Br)ccc43)nn2)ccc1O (stereo unspecified) ?
## Output 3.79

## Input Then CCOP(=O)(OCC)C(Nc1ccc(I)cc1)c1cc(Cn2cc(Cn3c(=O)cc(C)c4cc(F)ccc43)nn2)ccc1O (stereo unspecified) ?
## Output > 3.03

## Input Then CCOP(=O)(OCC)C(Nc1ccccc1Br)c1cc(Cn2cc(Cn3c(=O)cc(C)c4cc(Br)ccc43)nn2)ccc1O (stereo unspecified) ?
## Output 0.18

## Input Then CCOP(=O)(OCC)C(Nc1ccccc1)c1cc(Cn2cc(Cn3c(=O)cc(C)c4ccccc43)nn2)ccc1O (stereo unspecified) ?
## Output > 1.76

## Input Then `Cc1cc(=O)n(Cc2cn(Cc3ccc(O)c(C=O)c3)nn2)c2ccccc12` ?
## Output > 1.05

## Input Then CCOP(=O)(OCC)C(Nc1ccccc1)c1cc(Cn2cc(Cn3c(=O)cc(C)c4cc(Br)ccc43)nn2)ccc1O (stereo unspecified) ?
## Output > 2.5

## Input Then CCOP(=O)(OCC)C(Nc1ccccc1Br)c1cc(Cn2cc(Cn3c(=O)cc(C)c4ccccc43)nn2)ccc1O (stereo unspecified) ?
## Output 2.49

## Input Then CCOP(=O)(OCC)C(Nc1ccc(F)cc1)c1cc(Cn2cc(Cn3c(=O)cc(C)c4ccccc43)nn2)ccc1O (stereo unspecified) ?
## Output 2.83

* * *

Measured IC50 of individual entries
# System: Enterovirus A71
# assay_method_text: Antiviral activity against human EV71 infected in human RD cells assessed as inhibition of cytopathic effect by microscopy based analysis
# Assay type: functional, organism-based
# condition_context: Enterovirus A

compound: CCOP(=O)(OCC)C(Nc1ccccc1OC)c1cc(Cn2cc(Cn3c(=O)cc(C)c4cc(F)ccc43)nn2)ccc1O (configuration not stated)
IC50: > 100 µM

compound: Cc1cc(=O)n(Cc2cn(Cc3ccc(O)c(C=O)c3)nn2)c2ccc(F)cc12
IC50: 29.9 µM

compound: CCOP(=O)(OCC)C(Nc1ccccc1Cl)c1cc(Cn2cc(Cn3c(=O)cc(C)c4cc(Br)ccc43)nn2)ccc1O (configuration not stated)
IC50: > 100 µM

compound: CCOP(=O)(OCC)C(Nc1ccccc1)c1cc(Cn2cc(Cn3c(=O)cc(C)c4cc(F)ccc43)nn2)ccc1O (configuration not stated)
IC50: > 100 µM

compound: CCOP(=O)(OCC)C(Nc1ccccc1Cl)c1cc(Cn2cc(Cn3c(=O)cc(C)c4cc(F)ccc43)nn2)ccc1O (configuration not stated)
IC50: > 100 µM

## Input # get_value(readout='IC50', item= CCOP(=O)(OCC)C(Nc1ccccc1OC)c1cc(Cn2cc(Cn3c(=O)cc(C)c4ccccc43)nn2)ccc1O (configuration not stated) )
## Output > 100 µM

## Input Then CCOP(=O)(OCC)C(Nc1ccccc1)c1cc(Cn2cc(Cn3c(=O)cc(C)c4cc(Br)ccc43)nn2)ccc1O (configuration not stated) ?
## Output > 100 µM

## Input Then `Cc1cc(=O)n(Cc2cn(Cc3ccc(O)c(C=O)c3)nn2)c2ccccc12` ?
## Output > 33.3 µM

## Input Then CCOP(=O)(OCC)C(Nc1ccc(C)cc1)c1cc(Cn2cc(Cn3c(=O)cc(C)c4ccccc43)nn2)ccc1O (configuration not stated) ?
## Output > 100 µM

## Input Then CCOP(=O)(OCC)C(Nc1ccc(C)cc1)c1cc(Cn2cc(Cn3c(=O)cc(C)c4cc(F)ccc43)nn2)ccc1O (configuration not stated) ?
## Output > 100 µM

* * *

# assay_method_text: Cytotoxicity against human RD cells
# Format: toxicity, cell-based
measure: CC50

Example cases with answers are listed next.
molecule: Cc1cc(=O)n(Cc2cn(Cc3ccc(O)c(C=O)c3)nn2)c2ccc(Br)cc12
CC50: 44.1 µM

molecule: CCOP(=O)(OCC)C(Nc1ccc(C)cc1)c1cc(Cn2cc(Cn3c(=O)cc(C)c4cc(Br)ccc43)nn2)ccc1O (stereo not drawn)
CC50: > 100 µM

molecule: Cc1cc(=O)n(Cc2cn(Cc3ccc(O)c(C=O)c3)nn2)c2ccc(F)cc12
CC50: 43 µM

molecule: CCOP(=O)(OCC)C(Nc1ccc(F)cc1)c1cc(Cn2cc(Cn3c(=O)cc(C)c4ccccc43)nn2)ccc1O (stereo not drawn)
CC50: 75.8 µM

molecule: CCOP(=O)(OCC)C(Nc1ccccc1)c1cc(Cn2cc(Cn3c(=O)cc(C)c4cc(Br)ccc43)nn2)ccc1O (stereo not drawn)
CC50: > 100 µM

## Input # get_value(readout='CC50', item= CCOP(=O)(OCC)C(Nc1ccccc1Cl)c1cc(Cn2cc(Cn3c(=O)cc(C)c4ccccc43)nn2)ccc1O (stereo not drawn) )
## Output > 100 µM

## Input Then CCOP(=O)(OCC)C(Nc1ccc(C)cc1)c1cc(Cn2cc(Cn3c(=O)cc(C)c4cc(F)ccc43)nn2)ccc1O (stereo not drawn) ?
## Output > 100 µM

## Input Then `CCOC(=O)/C=C/[C@H](C[C@@H]1CCNC1=O)NC(=O)[C@@H](CC(=O)[C@@H](NC(=O)c1cc(C)on1)C(C)C)Cc1ccc(F)cc1` ?
## Output > 100 µM

* * *

# assay_method_text: Selectivity index, ratio of CC50 for human HeLa-RH cells to IC50 for Human rhinovirus B14 infected in human HeLa-RH cells
# Assay type: toxicity, cell-based
# condition_context: read-out: Ratio CC50/IC50
measure: selectivity ratio

compound: Cc1cc(CCCOc2c(C)cc(-c3noc(C(F)(F)F)n3)cc2C)on1 [PLECONARIL]
measure: selectivity ratio
result: > 500
//
compound: CCOP(=O)(OCC)C(Nc1ccccc1)c1cc(Cn2cc(Cn3c(=O)cc(C)c4cc(Br)ccc43)nn2)ccc1O (centres undefined)
measure: selectivity ratio
result: > 2.43
//
compound: CCOP(=O)(OCC)C(Nc1ccc(I)cc1)c1cc(Cn2cc(Cn3c(=O)cc(C)c4cc(F)ccc43)nn2)ccc1O (centres undefined)
measure: selectivity ratio
result: > 3.06

Then this compound:
## Input # get_value(readout='selectivity ratio', item= CCOP(=O)(OCC)C(Nc1ccc(C)cc1)c1cc(Cn2cc(Cn3c(=O)cc(C)c4cc(Br)ccc43)nn2)ccc1O (centres undefined) )
## Output 2.73

* * *

# assay_method_text: Selectivity index, ratio of CC50 for African green monkey Vero E6 cells to IC50 for Zika virus infected in african green monkey Vero E6 cells
# Format: toxicity
# condition_context: read-out: Ratio CC50/IC50
Measured selectivity ratio of individual entries

compound: CCOP(=O)(OCC)C(Nc1ccccc1Cl)c1cc(Cn2cc(Cn3c(=O)cc(C)c4cc(Br)ccc43)nn2)ccc1O (configuration not stated)
selectivity ratio: > 1.4

## Input # get_value(readout='selectivity ratio', item= C[C@@]1(O)[C@H](O)[C@@H](CO)O[C@H]1n1ccc2c(N)ncnc21 [BETA-2'-C-METHYL-7-DEAZA-ADENOSINE] )
## Output > 5

* * *

Measured Ratio of individual entries
# Test system: Staphylococcus aureus
# assay_method_text: Ratio of MBC to MIC for Staphylococcus aureus CIP 54127
# Format: functional
Please give the numeric answer without any surrounding text.

Example cases with answers are listed next.
compound: CCOP(=O)(OCC)C(Nc1ccccc1Cl)c1cc(Cn2cc(Cn3c(=O)cc(C)c4ccccc43)nn2)ccc1O (configuration not stated)
quantitative_readout: 1
//
compound: CCOP(=O)(OCC)C(Nc1ccccc1Cl)c1cc(Cn2cc(Cn3c(=O)cc(C)c4cc(F)ccc43)nn2)ccc1O (configuration not stated)
quantitative_readout: 2
//
compound: CCOP(=O)(OCC)C(Nc1ccc(F)cc1)c1cc(Cn2cc(Cn3c(=O)cc(C)c4cc(Br)ccc43)nn2)ccc1O (configuration not stated)
quantitative_readout: 1
//
compound: CCOP(=O)(OCC)C(Nc1ccccc1OC)c1cc(Cn2cc(Cn3c(=O)cc(C)c4cc(Br)ccc43)nn2)ccc1O (configuration not stated)
quantitative_readout: 1.96
//
compound: CCOP(=O)(OCC)C(Nc1ccccc1)c1cc(Cn2cc(Cn3c(=O)cc(C)c4cc(F)ccc43)nn2)ccc1O (configuration not stated)
quantitative_readout: 2.04

## Input # get_value(readout='Ratio', item= CCOP(=O)(OCC)C(Nc1ccc(C)cc1)c1cc(Cn2cc(Cn3c(=O)cc(C)c4cc(Br)ccc43)nn2)ccc1O (configuration not stated) )
## Output 1

## Input Then CCOP(=O)(OCC)C(Nc1ccccc1)c1cc(Cn2cc(Cn3c(=O)cc(C)c4cc(Br)ccc43)nn2)ccc1O (configuration not stated) ?
## Output 1

## Input Then `Cc1cc(=O)n(Cc2cn(Cc3ccc(O)c(C=O)c3)nn2)c2ccc(Br)cc12` ?
## Output 1

## Input Then `Cc1cc(=O)n(Cc2cn(Cc3ccc(O)c(C=O)c3)nn2)c2ccc(F)cc12` ?
## Output 1

## Input Then CCOP(=O)(OCC)C(Nc1ccc(I)cc1)c1cc(Cn2cc(Cn3c(=O)cc(C)c4cc(F)ccc43)nn2)ccc1O (configuration not stated) ?
## Output 2

## Input Then CCOP(=O)(OCC)C(Nc1ccc(C)cc1)c1cc(Cn2cc(Cn3c(=O)cc(C)c4ccccc43)nn2)ccc1O (configuration not stated) ?
## Output 1
